Cited source: PubChem BioAssay AID504382

# assay_notes: IANBD-channel fluorescence artefacts in buffer – biochemical, artefact control for cardiac RTF calcium sensitizer project, confirmation (AID 504382)
# experimental_conditions: IANBD fluorescence interference counterscreen, EC20 Ca2+, at 7.2 µM, hits give high values, scaled: EC20 calcium 0, EC100 calcium 100
The campaign covered roughly 2,500 compounds. About 460 (18%) were called active. The list is a sample of the results.
reported_property: fluorescence artifact activation (%)
Give the number; % is assumed, so skip it.

# count of solved cases: 3
molecule: O=C(NCc1ccccc1)c1ccc(N2CCC3(CC2)CC(c2ccccc2)=NO3)c([N+](=O)[O-])c1
reported_property: fluorescence artifact activation
observed: -0.07
--
molecule: NC(=O)CC(NC(=O)c1ccc(Br)cc1)c1ccc(N2CCN(c3ccc(F)cc3)CC2)c([N+](=O)[O-])c1 (centres undefined)
reported_property: fluorescence artifact activation
observed: 13.7
--
molecule: CCCN1C(=O)/C(=C/c2ccc(N3CCCC3)c(C)c2)NC1=S
reported_property: fluorescence artifact activation
observed: 0.06

QUERY: Need fluorescence artifact activation of Cc1noc(C)c1NC(=O)N(C)C[C@H]1Oc2c(NS(=O)(=O)c3cccs3)cccc2C(=O)N([C@H](C)CO)C[C@@H]1C , thanks.
RESULT: -0.07
